Origin of the recorded values: the RNAGym collection of RNA variant scans (doi:10.1021/acssynbio.7b00057)

B1: Pistol ribozyme (parent)
chain: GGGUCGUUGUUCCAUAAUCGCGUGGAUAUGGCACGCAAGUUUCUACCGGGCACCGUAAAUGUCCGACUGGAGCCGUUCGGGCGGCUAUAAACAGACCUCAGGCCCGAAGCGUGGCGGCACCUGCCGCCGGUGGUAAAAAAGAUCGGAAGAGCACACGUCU

Variants of: B1
Experiment: aptazyme ON/OFF ratio, guanine; higher = stronger switching; co-transcriptional cleavage with and without guanine
In this section, each of the variants is paired with its reported aptazyme ON/OFF ratio.
// keep it numeric: no unit symbol after the value

Variant Name	Observed Property	Reported Value
U8G G9U C12A	aptazyme ON/OFF ratio	1.57
U8C G9C	aptazyme ON/OFF ratio	1.12

Note down aptazyme ON/OFF ratio recorded for U7A U8G G9C U10A C12A C13G 1.26

Note down aptazyme ON/OFF ratio recorded for U7G U8C G9A U11G C12A C13U 1.12

Note down aptazyme ON/OFF ratio recorded for U7G U8G G9C U10G U11G C13A 1.18

Note down aptazyme ON/OFF ratio recorded for U8A U10C U11G C12U 1.37

Note down aptazyme ON/OFF ratio recorded for U8A U10A C12A C13A 1.19

Note down aptazyme ON/OFF ratio recorded for U7C U8G U10C U11C C12A C13U 1.15

Note down aptazyme ON/OFF ratio recorded for U7G G9C U10G U11A C12A C13U 1.17

Note down aptazyme ON/OFF ratio recorded for U7G U8C G9A U10C C12A C13A 1.12

Note down aptazyme ON/OFF ratio recorded for U7C U8A G9U U11G 1.21

Note down aptazyme ON/OFF ratio recorded for U7A U8A G9C U10A U11A C12G C13G 1.23

Note down aptazyme ON/OFF ratio recorded for U8C G9A U10C C12A C13U 1.33
